- Test system: Alanine Aminotransferase (ALT)
- Protocol details: Liver enzyme elevation in serum, ALT
- Type: in vivo
- Setup conditions: cirRNA (SEQ ID NO: 1) LNPs; BALB/C mice; intravenous 0.5 MPK; 24 hours
Labelling: ALT in Sera (IU/L) 24 hours After 0.5 MPK Injection reported below 100 IU/L becomes 1; at or above becomes 0.

Here's what some known entries look like.
CCCCCCCCC(CCCCCC)C(=O)OCCCCCCCCN(CCCCCCCCOC(=O)C(CCCCCC)CCCCCCCC)CCCOC(=O)NCCN1CCCCC1 (stereo not shown); 0
CCCCCCCCCCC(CCCCCCCC)COC(=O)CCCCCN(CCCCCC(=O)OCC(CCCCCCCC)CCCCCCCCCC)CCCOC(=O)NCCN1CCCC1 (stereo not shown); 0
CCCCCCCCC(CCCCCC)C(=O)OCCCCCCCCN(CCCCCCCCOC(=O)C(CCCCCC)CCCCCCCC)CCCOC(=O)NCCCN(CC)CC (stereo not shown); 0
CCCCC/C=C\C/C=C\CCCCCCCCN(CCCCCCCC(=O)OC(CCCCCCCC)CCCCCCCC)CCOC(=O)NCCN1CCCCC1; 1
CCCCCCCCC(CCCCCC)C(=O)OCCCCCCCCN(CCCCCCCCOC(=O)C(CCCCCC)CCCCCCCC)CCCOC(=O)NCCN(C)C (stereo not shown); 0
CCCCC/C=C\C/C=C\CCCCCCCCN(CCCCCCCC(=O)OC(CCCCCCCC)CCCCCCCC)CCCOC(=O)NCc1ncc[nH]1; 0

Task: I wonder whether CCCCCCCCC(CCCCCCCC)OC(=O)CCCCCCCN(CCCCCCCCOC(=O)C(CCCCCC)CCCCCCCC)CCCOC(=O)NCCN(C)C (stereo not shown) has ALT in Sera (IU/L) 24 hours After 0.5 MPK Injection below 100 IU/L. Can you tell?
Output: 0

Task: Would you kindly repeat that for CCCCCCCCCC(=O)OCCCCCCCN(CCCCCCCCOC(=O)C(CCCCCC)CCCCCCCC)CCOC(=O)NCCN(C)C (stereo not shown) ?
Output: 0

Task: Would you kindly repeat that for CCCCCCCCC(CCCCCCCC)OC(=O)CCCCCCCN(CCCCCCCCOC(=O)C(CCCCCC)CCCCCCCC)CCOC(=O)NCCN(C)C (stereo not shown) ?
Output: 1

Task: Would you kindly repeat that for `CCCCC/C=C\C/C=C\CCCCCCCCN(CCCCCCCC/C=C\CCCCCCCC)CCOC(=O)NCc1ncc[nH]1` ?
Output: 1

Task: Would you kindly repeat that for CCCCC/C=C\C/C=C\CCCCCCCCN(CCCCCC(=O)OCC(CCCCCCCC)CCCCCCCCCC)CCOC(=O)NCCN(C)C (stereo not shown) ?
Output: 1

Task: Would you kindly repeat that for CCCCCCCCCC(=O)OCCCCCCCN(CCCCCCCCOC(=O)C(CCCCCC)CCCCCCCC)CCOC(=O)NCCN1CCCC1 (stereo not shown) ?
Output: 1

----------
- Test system: Aspartate Aminotransferase (AST)
- Protocol details: Liver enzyme elevation in serum, AST
- Assay type: in vivo
- Setup conditions: cirRNA (SEQ ID NO: 1) LNPs; BALB/C mice; intravenous 0.5 MPK; 2 hours
Lab note: compare AST in Sera (IU/L) 2 hours After 0.5 MPK Injection against 300 IU/L. Equal or greater, write yes. Smaller, write no.

Here's what some known entries look like.
CCCCC/C=C\C/C=C\CCCCCCCCN(CCCCCCCC(=O)OC(CCCCCCCC)CCCCCCCC)CCCOC(=O)NCCN1CCCCC1; no
CCCCC/C=C\C/C=C\CCCCCCCCN(CCCCCCCC(=O)OC(CCCCCCCC)CCCCCCCC)CCOC(=O)NCCN1CCCCC1; no
CCCCC/C=C\C/C=C\CCCCCCCCN(CCCCCCCC(=O)OC(CCCCCCCC)CCCCCCCC)CCCOC(=O)NCCN(C)C; yes
CCCCC/C=C\C/C=C\CCCCCCCCN(CCCCCC(=O)OCCCCCCCCCCC)CCOC(=O)NCc1ncc[nH]1; no
CCCCCCCCC(CCCCCC)C(=O)OCCCCCCCCN(CCCCCCCCOC(=O)C(CCCCCC)CCCCCCCC)CCOC(=O)NCCN(C)C (stereo not shown); yes

Proceed to the following item.
Task: Threshold query (AST in Sera (IU/L) 2 hours After 0.5 MPK Injection >= 300 IU/L) on `CCCCC/C=C\C/C=C\CCCCCCCCN(CCCCCCCC(=O)OC(CCCCCCCC)CCCCCCCC)CCOC(=O)NCCN(C)C`
Output: no
